- Experimental Protocol: Metabolism in biological fluid (human whole blood, cancer cell lysate, liver microsomes, mouse oral uptake), HPLC
- Assay type: in vitro ADME
- Stated Conditions: liver microsomes or mouse oral uptake system, 20 μM, 37° C.
Observation Type: Major metabolite found after incubation in biological fluid

> print(dat)
                                   molecule  readout.value
1  CC(=O)c1cc2c(O)c3ccccc3c(OC(=O)CNC(=O)OC(C)(C)C)c2o1   compound XII
2  CC(=O)Oc1c2ccccc2c(OC(=O)CNC(=O)OC(C)(C)C)c2oc(C(C)=O)cc12   compound XII
3  CC(=O)c1cc2c(o1)C(=O)c1ccccc1C2=O [compound XIII, 2-acetyl-naphtho[2,3-b]furan-4,9-dione]   compound XII
4  CC(=O)c1cc2c(OC(=O)C(Cl)Cl)c3ccccc3c(OC(=O)C(Cl)Cl)c2o1   compound XII
5  CC(=O)c1cc2c(OC(=O)C(C)C)c3ccccc3c(OC(=O)C(C)C)c2o1   compound XII
